test system: COLO 205 colon; test: NCI tumour cell line growth inhibition, 48 h
Collected TGI values appear next to each entry.
PROPERTY_LABEL: TGI

[[record]]
compound = "CCOC(=O)C(NC(=O)Nc1ccc(Cl)c(Cl)c1)C(F)(F)F (stereo not given)"
system_name = "COLO 205 colon"
result = "> 100 µM"

[[record]]
compound = "O=c1[nH]nc(Cc2ccccc2)n1Nc1ccccc1"
system_name = "COLO 205 colon"
result = "> 100 µM"

[[record]]
compound = "Cn1c(-c2ccc(/C=N\\N3CCN(/N=C/c4ccc(-c5c[n+]6ccccc6n5C)cc4)CC3)cc2)c[n+]2ccccc12"
system_name = "COLO 205 colon"
result = "> 100 µM"

[[record]]
compound = "COc1ccc(N=C(Nc2ccc(OC)cc2)C(=Nc2ccc(OC)cc2)Nc2ccc(OC)cc2)cc1"
system_name = "COLO 205 colon"
result = "> 100 µM"

[[record]]
compound = "COc1cccc(C2c3cc4c(cc3OC(O)(CO)C2C(=O)O)OCO4)c1 (stereo not given) (tested in a mixture with another compound)"
system_name = "COLO 205 colon"
result = "> 100 µM"

[[record]]
compound = "Cc1cccc(C(C)C)c1NC(=O)C(=O)CC(=O)c1c(C)n([O-])c2ccccc2[n+]1=O"
system_name = "COLO 205 colon"
result = "88.3 µM"

[[record]]
compound = "CC(=O)Nc1ccc2c(c1)oc(=O)c1cc(NC(C)=O)ccc12"
system_name = "COLO 205 colon"
result = "> 100 µM"

[[record]]
compound = "CN(CCOc1ccc(C#N)cc1)CCOc1ccc(C#N)cc1"
system_name = "COLO 205 colon"
result = "> 100 µM"

[[record]]
compound = "O=S1C2=C(Cc3ccccc3)C(Cc3ccccc3)=C1CCc1cccc(c1)CC2"
system_name = "COLO 205 colon"
result = "58.8 µM"

[[record]]
compound = "CC12CCC(=O)C=C1CCC1C2C(O)CC2(C)C(c3csc(N)n3)CCC12 (stereo not given)"
system_name = "COLO 205 colon"
result = "> 100 µM"


----------
tested on: NCI-H460 lung; assay: NCI tumour cell line growth inhibition, 48 h
PROPERTY_LABEL: TGI

[[record]]
compound = "N#Cc1ccc(OCc2nc3cc(C(F)(F)F)ccc3nc2-c2ccccc2)cc1"
result = "> 100 µM"

[[record]]
compound = "COc1ccc(N=C(Nc2ccc(OC)cc2)C(=Nc2ccc(OC)cc2)Nc2ccc(OC)cc2)cc1"
result = "> 100 µM"

[[record]]
compound = "Cc1nc2sc(C(=O)Nc3ccccc3)c(N)c2cc1C(=O)/C=C/c1ccccc1"
result = "4.15 µM"

[[record]]
compound = "O=C1C2=C(c3ccccc31)C(c1ccccc1)NC(=S)N2 (stereo unspecified)"
result = "> 100 µM"

[[record]]
compound = "COc1cccc(-c2cc(=O)c3c(C)ccnc3[nH]2)c1"
result = "> 34.4 µM"

[[record]]
compound = "CCOC(=O)/C=C(\\C)c1ccc(OC)cc1"
result = "> 100 µM"

[[record]]
compound = "N#C/C(=C\\c1cccc(O)c1)C(N)=O"
result = "> 100 µM"

[[record]]
compound = "Clc1nc(Cl)c2ncn(Cc3ccc(COc4cccc(OCc5ccc(Cn6cnc7c(Cl)nc(Cl)nc76)cc5)c4)cc3)c2n1"
result = "> 100 µM"

[[record]]
compound = "COc1nc2nccc-2c2occn12"
result = "> 100 µM"

[[record]]
compound = "O=[N+]([O-])c1ccc2nc(/C=C(\\O)c3ccc(F)cc3)c(/C=C(\\O)c3ccc(F)cc3)nc2c1"
result = "> 100 µM"

[[record]]
compound = "COc1ccc(-c2cc(-c3cc(OC)c(OC)c(OC)c3)cc(-c3cc4ccccc4oc3=O)n2)cc1"
result = "17.8 µM"

[[record]]
compound = "COc1ccc2c3c1OC1c4[nH]c5ccccc5c4CC4(O)C(C2)N(C)CCC314 (stereo unspecified)"
result = "50.3 µM"

[[record]]
compound = "CC(C)(Br)C1(O)CCCN1C(=O)c1ccccc1 (stereo unspecified)"
result = "> 100 µM"

[[record]]
compound = "S=c1[nH]c(=S)c2cc(Sc3ccc4[nH]c(=S)[nH]c(=S)c4c3)ccc2[nH]1"
result = "> 100 µM"

[[record]]
compound = "O=C1C(Cl)=C(Nc2cccc(O)c2)C(=O)N1c1cc(Cl)c(Cl)cc1Cl"
result = "38.4 µM"

[[record]]
compound = "C=CC[C@H]1[C@H](O[Si](C)(C)C(C)(C)C)C=CC(=O)[C@@H]1CC(=O)N(Cc1ccccc1)Cc1ccccc1"
result = "> 100 µM"

[[record]]
compound = "Cc1ccc(NC(=O)/C(=N\\Nc2ccc([N+](=O)[O-])cc2[N+](=O)[O-])C2C(=O)NC(=O)NC2=O)cc1"
result = "> 100 µM"

[[record]]
compound = "CCOP(=O)(OCC)C(NC(c1ccccc1)c1ccccc1)c1cccc2ccccc12 (stereo unspecified)"
result = "25.8 µM"

[[record]]
compound = "Cc1ccc2c(n1)C(=O)c1ccccc1C2=O"
result = "> 69 µM"

[[record]]
compound = "NCc1ccc(C(=O)O)cc1"
result = "> 100 µM"

[[record]]
compound = "S=C1N=C(Cl)C2(NN1)c1ccccc1-c1ccccc12"
result = "> 10 µM"


----------
system: K-562 leukemia; assay: NCI tumour cell line growth inhibition, 48 h
Collected TGI values appear next to each entry.
PROPERTY_LABEL: TGI

[[record]]
compound = "COc1cc[n+](C)cc1"
system_name = "K-562 leukemia"
property_label = "TGI"
result = "> 100 µM"

[[record]]
compound = "CCCCCCCCCCCCCC(=O)CBr"
system_name = "K-562 leukemia"
property_label = "TGI"
result = "17.4 µM"

[[record]]
compound = "C=CC[C@H]1[C@H](O[Si](C)(C)C(C)(C)C)C=CC(=O)[C@@H]1CC(=O)N(Cc1ccccc1)Cc1ccccc1"
system_name = "K-562 leukemia"
property_label = "TGI"
result = "> 100 µM"

[[record]]
compound = "O=C1CCCCc2cccc(O)c21"
system_name = "K-562 leukemia"
property_label = "TGI"
result = "> 100 µM"

[[record]]
compound = "N[C@H](C(=O)O)[C@H](Cl)CC(=O)O"
system_name = "K-562 leukemia"
property_label = "TGI"
result = "> 100 µM"

[[record]]
compound = "CNC1=CC(=O)C2=C(C1=O)[C@H]1CC[C@]3(C)C(=O)CC[C@H]3[C@@H]1CC2"
system_name = "K-562 leukemia"
property_label = "TGI"
result = "> 57.5 µM"

[[record]]
compound = "CN(C)C(=S)N=Nc1c(O)[nH]c2ccccc12"
system_name = "K-562 leukemia"
property_label = "TGI"
result = "> 57.8 µM"

[[record]]
compound = "COc1ccc2c3c1OC1c4[nH]c5ccccc5c4CC4(O)C(C2)N(C)CCC314 (configuration not stated)"
system_name = "K-562 leukemia"
property_label = "TGI"
result = "37.2 µM"

[[record]]
compound = "CC(=O)c1cc([N+](=O)[O-])ccc1OCC(=O)O"
system_name = "K-562 leukemia"
property_label = "TGI"
result = "> 100 µM"

[[record]]
compound = "COc1nc2nccc-2c2occn12"
system_name = "K-562 leukemia"
property_label = "TGI"
result = "> 100 µM"

[[record]]
compound = "CSc1nc2c(nc(N)n2C2OCC(O)C(O)C2O)c(=O)n1C (configuration not stated)"
system_name = "K-562 leukemia"
property_label = "TGI"
result = "> 100 µM"

[[record]]
compound = "N#C/C(=C\\c1cccc(O)c1)C(N)=O"
system_name = "K-562 leukemia"
property_label = "TGI"
result = "> 100 µM"

[[record]]
compound = "CCOC(=O)NN1C(=O)C(=P(c2ccccc2)(c2ccccc2)c2ccccc2)C(C(=O)OCC)=C1C"
system_name = "K-562 leukemia"
property_label = "TGI"
result = "> 100 µM"

[[record]]
compound = "O=C(N/N=C\\c1ccc2ccccc2c1)Nc1ccc([N+](=O)[O-])cc1"
system_name = "K-562 leukemia"
property_label = "TGI"
result = "> 100 µM"

[[record]]
compound = "COC(=O)c1c(C)cccc1/C=C1\\Cc2cc(C)cc(C)c2C1=O"
system_name = "K-562 leukemia"
property_label = "TGI"
result = "> 100 µM"

[[record]]
compound = "CN(C)c1ccc(/C=C/C=C(/C#N)c2ccccc2)cc1"
system_name = "K-562 leukemia"
property_label = "TGI"
result = "> 38 µM"

[[record]]
compound = "Cn1c(-c2cccs2)cc(-c2cccs2)c1-c1ccsc1"
system_name = "K-562 leukemia"
property_label = "TGI"
result = "> 100 µM"

[[record]]
compound = "CC(C)=CCC/C(C)=C/CC/C(C)=C/CC/C(C)=C/CC/C(C)=C\\CC/C(C)=C/CC/C(C)=C/CC/C(C)=C/Cc1cc(O)ccc1O"
system_name = "K-562 leukemia"
property_label = "TGI"
result = "26.4 µM"

[[record]]
compound = "COc1cccc(-c2cc(=O)c3c(C)ccnc3[nH]2)c1"
system_name = "K-562 leukemia"
property_label = "TGI"
result = "0.397 µM"

[[record]]
compound = "CC(C)(Br)C1(O)CCCN1C(=O)c1ccccc1 (configuration not stated)"
system_name = "K-562 leukemia"
property_label = "TGI"
result = "> 100 µM"

[[record]]
compound = "NCc1ccccc1C1CSCSC1"
system_name = "K-562 leukemia"
property_label = "TGI"
result = "> 100 µM"

[[record]]
compound = "N#CC1(C#N)NC(c2ccsc2)C(C#N)(C#N)NC1c1ccsc1 (configuration not stated)"
system_name = "K-562 leukemia"
property_label = "TGI"
result = "> 100 µM"

[[record]]
compound = "C=C1C(=O)O[C@H]2[C@H]1CC/C(COC(=O)N1CCC[C@H]1C(=O)Nc1ccc(OC)c(C(N)=O)c1O)=C\\CC[C@@]1(C)O[C@@H]21"
system_name = "K-562 leukemia"
property_label = "TGI"
result = "10.2 µM"

[[record]]
compound = "C[C@H](O)C1CC(Cn2nnc3c(N)ncnc32)C1(C)C (some centres not stated)"
system_name = "K-562 leukemia"
property_label = "TGI"
result = "0.0411 µM"

[[record]]
compound = "CC(=O)OC1c2ccccc2CCCCCCC12OCCO2 (configuration not stated)"
system_name = "K-562 leukemia"
property_label = "TGI"
result = "> 100 µM"

[[record]]
compound = "CO/N=C(\\C)c1ccc(Nc2cc(-c3ccccc3)nc3c(O)cccc23)cc1"
system_name = "K-562 leukemia"
property_label = "TGI"
result = "60.4 µM"

[[record]]
compound = "COc1cc(Cn2c3c(c4c(C(=O)NCCN(C)C)c(O)ccc42)C(=O)c2ccccc2C3=O)cc(OC)c1"
system_name = "K-562 leukemia"
property_label = "TGI"
result = "> 100 µM"

[[record]]
compound = "COc1ccc(-c2cn(-c3ccccc3)c(-c3ccccc3)n2)cc1OC"
system_name = "K-562 leukemia"
property_label = "TGI"
result = "> 100 µM"

[[record]]
compound = "CC1OC2CC(=O)OC2C2=C1C(=O)c1c(O)c3c(c(O)c1C2=O)C1CC(O)C3(O)C(C)O1 (configuration not stated)"
system_name = "K-562 leukemia"
property_label = "TGI"
result = "11.5 µM"

[[record]]
compound = "CCOP(=O)(OCC)C(NC(c1ccccc1)c1ccccc1)c1cccc2ccccc12 (configuration not stated)"
system_name = "K-562 leukemia"
property_label = "TGI"
result = "21 µM"

[[record]]
compound = "COc1ccc2c(c1)c1c(n2CCN2CCCCC2)-c2ccccc2CC1"
system_name = "K-562 leukemia"
property_label = "TGI"
result = "45.9 µM"

[[record]]
compound = "CCCCN(Cc1ccc(F)cc1)c1ccc(CO)c(Cl)c1"
system_name = "K-562 leukemia"
property_label = "TGI"
result = "29.6 µM"

[[record]]
compound = "COc1ccc(C2S/C(=C\\c3ccc(O)cc3)C(=O)N2NC(=O)Cc2ccccc2)cc1 (configuration not stated)"
system_name = "K-562 leukemia"
property_label = "TGI"
result = "> 100 µM"

[[record]]
compound = "CC(=O)OCC1=C(C)C(OC(=O)C(OC(C)=O)[C@@H](NC(=O)c2ccccc2)c2ccccc2)CCC1(C)C (some centres not stated)"
system_name = "K-562 leukemia"
property_label = "TGI"
result = "> 100 µM"

[[record]]
compound = "COc1cc(CNc2ccc(C(C)C)cc2)cc(OC)c1OC"
system_name = "K-562 leukemia"
property_label = "TGI"
result = "41.7 µM"

[[record]]
compound = "N#Cc1c(NC(=S)NC(=O)c2ccccc2)nc2c(c1-c1ccccc1)CCCC2"
system_name = "K-562 leukemia"
property_label = "TGI"
result = "> 100 µM"

[[record]]
compound = "C[C@H]1[C@H](C)CC[C@]2(C(=O)O)CC[C@]3(C)C(=CC[C@@H]4[C@@]5(C)C/C(=C/c6cccnc6)[C@H](O)C(C)(C)[C@@H]5CC[C@]43C)[C@H]12"
system_name = "K-562 leukemia"
property_label = "TGI"
result = "> 100 µM"

[[record]]
compound = "COc1ccc(CC(C)N)cc1 (configuration not stated)"
system_name = "K-562 leukemia"
property_label = "TGI"
result = "> 100 µM"

[[record]]
compound = "COC(=O)CNC(=O)[C@@H](OC)[C@@H]1Cc2cc3cc(OC4CC(OC5CC(O)C(O)C(C)O5)C(O)C(C)O4)c(C)c(O)c3c(O)c2C(=O)[C@H]1OC1CC(OC2CC(OC3CC(C)(O)C(O)C(C)O3)C(O)C(C)O2)C(O)C(C)O1 (some centres not stated)"
system_name = "K-562 leukemia"
property_label = "TGI"
result = "> 50 µM"

[[record]]
compound = "Cc1ccc2c(n1)C(=O)c1ccccc1C2=O"
system_name = "K-562 leukemia"
property_label = "TGI"
result = "> 84 µM"

[[record]]
compound = "CNC(=O)c1[nH]cnc1/N=N/N(C)N"
system_name = "K-562 leukemia"
property_label = "TGI"
result = "> 100 µM"

[[record]]
compound = "Cc1nc2sc(C(=O)Nc3ccccc3)c(N)c2cc1C(=O)/C=C/c1ccccc1"
system_name = "K-562 leukemia"
property_label = "TGI"
result = "17 µM"

